# TARGET_SYSTEM: CDK2 (Homo sapiens (Human))
# METHOD: CDK2 NanoBiT assay (HiBiT-tagged CDK2 degradation)
# Format: cell-based
# EXPERIMENTAL_CONTEXT: HEK293, HEK293 clonal line, C-terminal HiBiT tag on CDK2, LgBiT; 24 hours
Record form. Attribute: Dmax. Fill in for each entry.

MOLECULE	TARGET_SYSTEM	REPORTED_METRIC	ENDPOINT_VALUE
O=C1CCC(c2c(F)cc(N3CC(NC(=O)OC4CN(C(=O)N5CCCC5)C4)C3)cc2F)C(=O)N1 (stereo not shown)	CDK2 (Homo sapiens (Human))	Dmax	50 to 80%
O=C1CCC(c2c(F)cc(N3CC(Nc4nnc(-c5ccc(Cl)cc5)o4)C3)cc2F)C(=O)N1 (stereo not shown)	CDK2 (Homo sapiens (Human))	Dmax	> 80%
O=C1CCC(c2c(F)cc(N3CC(Nc4nnc(-c5ccc(OC(F)(F)F)cc5)o4)C3)cc2F)C(=O)N1 (stereo not shown)	CDK2 (Homo sapiens (Human))	Dmax	> 80%

QUERY: In one line, give reported Dmax of the entry `O=C1CC[C@H](c2c(F)cc(N3CC[C@@H](NC(=O)OCC4CC5(CCC5)C4)C3=O)cc2F)C(=O)N1` .
RESULT: 50 to 80%

Values were extracted from patent US20250263395A1.
